# subject.of.test: Recombinant Human Anaplastic Lymphoma Kinase (Homo sapiens, UniProt Q9UM73)
# Construct: purchased Invitrogen, Carlsbad, Calif
# Sequence (Q9UM73 19-1620): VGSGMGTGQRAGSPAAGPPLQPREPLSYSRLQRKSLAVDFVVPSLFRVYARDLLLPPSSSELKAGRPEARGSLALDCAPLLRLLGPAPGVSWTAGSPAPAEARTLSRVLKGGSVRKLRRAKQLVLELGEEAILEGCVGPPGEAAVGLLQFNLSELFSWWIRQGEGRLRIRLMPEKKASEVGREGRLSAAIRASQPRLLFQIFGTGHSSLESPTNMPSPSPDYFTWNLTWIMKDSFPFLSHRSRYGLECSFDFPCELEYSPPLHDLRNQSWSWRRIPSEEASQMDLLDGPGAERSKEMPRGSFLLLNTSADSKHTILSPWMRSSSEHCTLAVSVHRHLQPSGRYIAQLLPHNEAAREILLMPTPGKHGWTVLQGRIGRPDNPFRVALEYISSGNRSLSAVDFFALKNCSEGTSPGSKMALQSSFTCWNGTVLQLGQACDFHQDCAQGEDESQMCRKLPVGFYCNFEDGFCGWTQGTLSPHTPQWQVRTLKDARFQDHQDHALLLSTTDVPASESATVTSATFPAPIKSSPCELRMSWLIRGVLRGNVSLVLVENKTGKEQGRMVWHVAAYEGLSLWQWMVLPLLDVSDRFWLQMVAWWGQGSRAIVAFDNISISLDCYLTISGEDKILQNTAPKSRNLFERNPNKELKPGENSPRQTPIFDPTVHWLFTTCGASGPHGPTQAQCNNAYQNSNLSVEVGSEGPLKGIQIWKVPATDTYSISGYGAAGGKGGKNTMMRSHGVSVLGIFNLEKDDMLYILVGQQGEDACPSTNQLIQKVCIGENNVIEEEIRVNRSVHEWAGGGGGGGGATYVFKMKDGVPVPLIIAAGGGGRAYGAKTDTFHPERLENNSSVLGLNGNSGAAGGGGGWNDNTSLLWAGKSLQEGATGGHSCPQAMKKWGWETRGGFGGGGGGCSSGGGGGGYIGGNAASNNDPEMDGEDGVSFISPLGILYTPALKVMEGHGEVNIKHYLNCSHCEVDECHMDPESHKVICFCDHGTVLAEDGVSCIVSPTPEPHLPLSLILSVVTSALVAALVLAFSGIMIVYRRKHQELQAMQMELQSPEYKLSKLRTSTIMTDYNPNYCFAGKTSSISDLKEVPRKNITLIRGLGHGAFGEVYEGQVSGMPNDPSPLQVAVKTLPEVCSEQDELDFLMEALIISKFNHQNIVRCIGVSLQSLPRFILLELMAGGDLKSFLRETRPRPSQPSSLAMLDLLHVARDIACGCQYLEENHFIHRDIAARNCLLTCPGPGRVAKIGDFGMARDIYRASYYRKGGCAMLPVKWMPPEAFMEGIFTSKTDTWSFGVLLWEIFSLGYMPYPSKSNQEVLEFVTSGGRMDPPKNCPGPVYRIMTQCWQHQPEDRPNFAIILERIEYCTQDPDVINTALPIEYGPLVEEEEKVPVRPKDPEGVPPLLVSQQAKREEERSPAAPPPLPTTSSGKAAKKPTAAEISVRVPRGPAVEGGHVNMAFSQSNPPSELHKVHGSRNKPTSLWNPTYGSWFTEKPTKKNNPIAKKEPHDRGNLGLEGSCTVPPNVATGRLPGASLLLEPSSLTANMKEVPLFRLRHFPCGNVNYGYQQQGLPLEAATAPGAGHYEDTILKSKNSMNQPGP
# measurement.protocol: ALK HTRF kinase assay
# Assay type: biochemical
# protocol.conditions: compound at a concentration of 500 nM or 1 mM (not specified); cells shown as percentage
Counter-ions that a name gives are not always drawn.
quantity.kind: ALK % of inhibition at a concentration of 500 nM or 1 mM (%)

Past entries and their recorded results:
In [3]: df
Out[3]:
                                   compound  value
0  CNC(=O)Nc1ccc2cc1CCc1cccc(c1)Nc1ncc(Cl)c(n1)N2 [Example B114, trifluoroacetate]     24
1  O=C(Nc1ccc2cc1CCc1cccc(c1)Nc1ncc(Cl)c(n1)N2)Nc1ccccc1OC(F)(F)F [Example B131, trifluoroacetate]    5.9
2  COc1ccccc1N1CCN(C(=O)Nc2ccc3cc2CCc2cncc(c2)Nc2ncc(Cl)c(n2)N3)CC1 [Example B298, tris(trifluoroacetate)]     62
3  O=C(Nc1ccc2cc1CCc1cncc(c1)Nc1ncc(Cl)c(n1)N2)N1CCN(c2cnccn2)CC1 [Example B294, (trifluoroacetate)]     54
4  O=S(=O)(Nc1ccc2cc1CCc1cccc(c1)Nc1ncc(Cl)c(n1)N2)c1ccc(C(F)(F)F)cc1 [Example B162, trifluoroacetate]     16

(P) CC(C)(C)c1ccc(C(=O)Nc2ccc3cc2CCc2cccc(c2)Nc2ncc(Cl)c(n2)N3)cc1 [Example B73, trifluoroacetate]
(Q) O=C(Nc1ccc2cc1CCc1cncc(c1)Nc1ncc(Cl)c(n1)N2)N1CCN(c2ccncc2)CC1 [Example B293, (trifluoroacetate)]
Query block: Lab note: check whether P or Q has the lower measured ALK % of inhibition at a concentration of 500 nM or 1 mM. Your answer should be the label attached to the chosen record.
Result block: P

(1) Cc1cc(C(=O)Nc2ccc3cc2CCc2cccc(c2)Nc2ncc(Cl)c(n2)N3)no1 [Example B68, trifluoroacetate]
(2) O=C(NCCNC(=O)c1ccccn1)Nc1ccc2cc1CCc1cccc(c1)Nc1ncc(Cl)c(n1)N2 [Example B190, trifluoroacetate]
(3) CN(C)c1ccc(C(=O)Nc2ccc3cc2CCc2cccc(c2)Nc2ncc(Cl)c(n2)N3)cc1 [Example B82, bis(trifluoroacetate)]
Query block: Rank order required: ALK % of inhibition at a concentration of 500 nM or 1 mM, descending. Field: ranking. Enter the labels in the order requested.
Result block: 3, 1, 2
(3: 39%, 1: 19%, 2: 11%)

(a) O=C(Nc1ccc2cc1CCc1cccc(c1)Nc1ncc(Cl)c(n1)N2)N[C@H]1CCNC1 [Example B167, bis(trifluoroacetate)]
(b) Cn1cc(C(=O)N2CC[C@H](NC(=O)Nc3ccc4cc3CCc3cncc(c3)Nc3ncc(Cl)c(n3)N4)C2)cn1 [Example B269, bis(trifluoroacetate)]
Query block: Could you tell me which of these two has the smaller ALK % of inhibition at a concentration of 500 nM or 1 mM figure? First: a Second: b # reply format: chosen label
Result block: b

* * *

# subject.of.test: human JAK3 (a.a. 781-1124) (Homo sapiens)
# Construct: JAK3 (a.a. 781-1124); His tag (N); made in house; host or cells: insect cells (baculovirus)
# Sequence (P52333 781-1124): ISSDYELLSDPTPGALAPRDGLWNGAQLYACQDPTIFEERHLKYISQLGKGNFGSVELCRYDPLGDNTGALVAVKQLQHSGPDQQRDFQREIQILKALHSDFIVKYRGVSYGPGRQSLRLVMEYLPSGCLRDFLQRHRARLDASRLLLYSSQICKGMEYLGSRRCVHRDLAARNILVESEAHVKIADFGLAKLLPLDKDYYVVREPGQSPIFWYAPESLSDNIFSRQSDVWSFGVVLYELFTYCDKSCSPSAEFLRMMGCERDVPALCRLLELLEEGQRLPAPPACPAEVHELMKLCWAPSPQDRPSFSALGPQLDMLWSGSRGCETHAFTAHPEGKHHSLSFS
# measurement.protocol: In vitro JAK kinase assay (HTRF, phosphorylation of a biotinylated peptide), JAK3
# Type: biochemical
# protocol.conditions: Table D1
pIC50: −log10 of the molar value. Counter-ions that a name gives are not always drawn.
quantity.kind: pIC50

Previously resolved entries follow.
>>> df
                                   molecule                           subject_of_test  quantity_kind  value
0  O=C(c1ccc(C(F)(F)F)cc1)N1CCN(c2ccc3cc2CCc2cccc(c2)Nc2ncc(Cl)c(n2)N3)CC1 [Example D96, bis(trifluoroacetate)]  human JAK3 (a.a. 781-1124) (Homo sapiens)          pIC50   6.83
1  O=C(Cn1c(=O)oc2c3cc(cc21)Nc1nc(ncc1Cl)Nc1cccc(c1)CC3)N1CCN(c2ccccc2)CC1 [Example D188, bis(trifluoroacetate)]  human JAK3 (a.a. 781-1124) (Homo sapiens)          pIC50   7.10
2  Clc1cnc2nc1Nc1cccc(c1)OCCOc1cccc(c1)N2 [Example D10, trifluoroacetate]  human JAK3 (a.a. 781-1124) (Homo sapiens)          pIC50   8.00

(P) Clc1cnc2nc1Nc1cccc(c1)OCCc1cc(cc(-c3ccncc3)c1)N2 [Example D25, bis(trifluoroacetate)]
(Q) CN1CCN(Cc2cc3cc(c2)Nc2ncc(Cl)c(n2)Nc2cccc(c2)OCC3)CC1 [Example D190, tris(trifluoroacetate)]
Query block: Which entry has a larger number for pIC50, P or Q ? State your choice using its label.
Result block: Q
(Q: 8.52, P: 8.06)

(I) CC(=O)N1CCN(c2ccc(-c3cc4cc(c3)Nc3ncc(Cl)c(n3)Nc3cccc(c3)OCC4)cn2)CC1 [Example D37, tris(trifluoroacetate)]
(II) NC(=O)N1CCN(c2ccc3cc2CCc2cccc(c2)Nc2ncc(Cl)c(n2)N3)CC1 [Example D87, bis(trifluoroacetate)]
Query block: Hi team, can someone confirm which has the larger pIC50: I or II ? Thanks. Please reply using the label of the selected record.
Result block: I
(I: 8.00, II: 7.47)

(1) [O-][S+]1Cc2cccc(c2)Nc2nc(ncc2Cl)Nc2cccc1c2 (stereo not shown) [Example D3, trifluoroacetate]
(2) O=C(Nc1cc2cc(c1)OCCSc1cccc(c1)Nc1nc(ncc1Cl)N2)c1ccncc1 [Example D60, bis(trifluoroacetate)]
Query block: pIC50 comparison. Which is larger, 1 or 2 ? Write down the label attached to your selection.
Result block: 2

(P) CC(C)(C)NC(=O)N1CCN(c2cc(-c3cc4cc(c3)Nc3ncc(Cl)c(n3)Nc3cccc(c3)OCC4)ccn2)CC1 [Example D41, bis(trifluoroacetate)]
(Q) CC(=O)N1CCC[C@@H](CC(=O)Nc2ccc3cc2CCc2cccc(c2)Nc2ncc(Cl)c(n2)N3)C1 [Example D200, trifluoroacetate]
Query block: Which record shows the lower pIC50: the first, P , or the second, Q ? State the label of the item chosen.
Result block: Q
(Q: 7.47, P: 7.77)

(a) CC(=O)N1CCC[C@H](CC(=O)Nc2ccc3cc2CCc2cccc(c2)Nc2ncc(Cl)c(n2)N3)C1 [Example D201, trifluoroacetate]
(b) Clc1cnc2nc1Nc1cccc(c1)OCCc1cc(cc(-c3ccnc(N4CCNCC4)c3)c1)N2 [Example D27, tris(trifluoroacetate)]
Query block: // compare measured pIC50, left a , right b , return larger // return label of chosen record
Result block: b
(b: 8.46, a: 7.54)
